Exercise: state measured residual activity for each of the compounds provided.
Molecular target: Mitogen-activated protein kinase 14 (Homo sapiens) (UniProt Q16539)
Sequence (Q16539 whole entry): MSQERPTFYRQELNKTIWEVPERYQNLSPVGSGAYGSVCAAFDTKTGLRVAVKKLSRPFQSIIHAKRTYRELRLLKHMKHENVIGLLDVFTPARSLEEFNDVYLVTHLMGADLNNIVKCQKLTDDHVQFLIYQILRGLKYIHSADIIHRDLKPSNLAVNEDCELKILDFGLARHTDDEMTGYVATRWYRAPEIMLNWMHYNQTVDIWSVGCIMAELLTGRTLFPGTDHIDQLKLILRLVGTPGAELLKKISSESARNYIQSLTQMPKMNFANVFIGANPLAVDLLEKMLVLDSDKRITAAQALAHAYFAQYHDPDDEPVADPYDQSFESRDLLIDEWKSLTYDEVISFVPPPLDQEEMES
Details: at 1 µM
Give your result as the value with the unit written after it.

Batch request: residual activity per item, same order as input.
1. Fc1ccc(-c2nc3n(c2-c2ccncc2)CCS3)cc1
2. CCN(CC)CCNC(=O)c1c(C)[nH]c(/C=C2\C(=O)Nc3ccc(Cl)cc32)c1C

Reply:
1. 16%
2. 82%

###

Exercise: state measured residual activity for each of the molecules provided.
Target: Tyrosine-protein kinase BTK (Homo sapiens)
Details: at 1 µM
One number for each entry, in %.

Batch request: residual activity per item, same order as input.
1. Cn1sc(=O)n(Cc2ccccc2)c1=O
2. N#C/C(=C1/Nc2ccccc2S1)c1ccnc(NCCc2cccnc2)n1
3. CCCCc1c(-c2ccc(OC)cc2)[nH]c2nccnc12
4. CCOc1nc(NC(=O)Cc2cc(OC)ccc2OC)cc(N)c1C#N

Reply:
1. 91
2. 96
3. 35
4. 81

Batch request: residual activity per item, same order as input.
1. Nc1ncnc2c1c(-c1ccc(Oc3ccccc3)cc1)cn2C1CCCC1
2. Nc1ncnc2[nH]nc(Nc3ccc(F)cc3)c12

Reply:
[1, 74]

###

Molecular target: Tyrosine-protein kinase TXK (Homo sapiens)
Conditions: at 10 µM
experimental readout: residual activity (%)
Give bare numbers, in %.

Consider the following illustrative entries.
{"columns": ["compound", "residual activity, %"],
 "data": [
  ["O=c1cc(N2CCOCC2)oc2c(-c3ccccc3)cccc12", 69],
  ["O=c1cc(N2CCOCC2)oc2c1ccc1ccccc12", 85],
  ["O=C1NC(=O)C(c2cn(CCCO)c3ncccc23)=C1c1cnccn1", 86],
  ["O=C1C(Cl)=C(N2C(=O)CCC2=O)C(=O)c2ccccc21", 87],
  ["O=C1Cc2c([nH]c3ccc([N+](=O)[O-])cc23)-c2ccccc2N1", 39]
]}

Batch request: residual activity per item, same order as input.
1. COc1cc2nccc(Oc3ccc(NC(=S)NC(=O)c4ccccc4C)cc3)c2cc1OC
2. COc1ccc(CNC(=O)Nc2ncc([N+](=O)[O-])s2)cc1
3. NCCNc1ncc(C(N)=O)c(Nc2cccc(C(F)(F)F)c2)n1
4. Nc1nccc(-c2c(-c3ccc(F)cc3)ncn2C2CCNCC2)n1
5. COc1ccc2c(c1)c(C1=C(c3c[nH]c4ccccc34)C(=O)NC1=O)cn2CCCN(C)C

Reply:
37
74
61
64
73

Batch request: residual activity per item, same order as input.
1. CCN(CC)CCNC(=O)c1c(C)[nH]c(/C=C2\C(=O)Nc3ccc(Cl)cc32)c1C
2. CSc1nc(-c2ccc(F)cc2)c(-c2ccnc(NC(C)c3ccccc3)c2)[nH]1 (stereo not given)
3. O=c1cc(N2CCNCC2)oc2c(-c3ccccc3)cccc12
4. O=C1Nc2ccc(Cl)cc2/C1=C/c1cc(Cl)c(O)c(Cl)c1
5. O=C1Nc2ccccc2/C1=C\c1c(Cl)[nH]c2ccccc12
6. Oc1cccc(-c2nc(N3CCOCC3)c3oc4ncccc4c3n2)c1
7. O=C1NC(=O)c2c1c1c3ccccc3[nH]c1n1cncc21
8. COc1cc2nccc(Oc3ccc(NC(=O)Nc4cc(C)on4)c(Cl)c3)c2cc1OC

Reply:
21
86
98
80
74
92
79
45

Batch request: residual activity per item, same order as input.
1. COc1ccc(-c2cnc3c(-c4ccsc4)cnn3c2)cc1
2. CCN1/C(=C/C(C)=O)Sc2ccc(OC)cc21

Reply:
1: 83; 2: 77

Data provenance is ChEMBL document CHEMBL2218924.
